Tested System: T1, gH/gL/UL128/UL130/UL131A pentamer complex expressed from MVA-PC in BHK-21 cells (human cytomegalovirus, UniProt P12824 24-743; P16832 31-278; P16837 28-171; P16772 1-214; F5HET4 19-129)
T1 construct: whole, on cells
Test Method Notes: FC competition, MVA-PC BHK-21; unlabelled row Ab; competitor: biotinylated 62-11; also: test concentration or dose not given here
Each entry below carries its recorded Binding Inhibition (%).
Readout Label: Binding Inhibition (%)

1. 21E9 (antibody, V domains shown, also called NAb 21E9) VH: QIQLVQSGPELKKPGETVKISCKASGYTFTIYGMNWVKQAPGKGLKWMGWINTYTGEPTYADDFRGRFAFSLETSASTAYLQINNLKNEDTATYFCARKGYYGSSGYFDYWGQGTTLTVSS VL: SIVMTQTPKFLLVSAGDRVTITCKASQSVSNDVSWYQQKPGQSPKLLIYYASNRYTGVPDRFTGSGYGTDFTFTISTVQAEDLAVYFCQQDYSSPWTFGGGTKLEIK; 32
2. 62-11 (antibody, V domains shown, also called NAb 62-11) VH: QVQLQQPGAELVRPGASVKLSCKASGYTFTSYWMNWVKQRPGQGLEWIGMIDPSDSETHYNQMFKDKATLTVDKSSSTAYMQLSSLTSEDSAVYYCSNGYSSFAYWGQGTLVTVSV VL: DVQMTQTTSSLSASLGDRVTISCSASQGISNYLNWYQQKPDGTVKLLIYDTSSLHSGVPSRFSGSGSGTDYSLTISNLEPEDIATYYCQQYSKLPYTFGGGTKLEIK; 100
3. 62-100 (antibody, V domains shown, also called NAb 62-100) VH: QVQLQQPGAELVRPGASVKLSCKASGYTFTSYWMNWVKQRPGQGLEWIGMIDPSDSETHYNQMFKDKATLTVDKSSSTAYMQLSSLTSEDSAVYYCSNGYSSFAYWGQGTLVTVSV VL: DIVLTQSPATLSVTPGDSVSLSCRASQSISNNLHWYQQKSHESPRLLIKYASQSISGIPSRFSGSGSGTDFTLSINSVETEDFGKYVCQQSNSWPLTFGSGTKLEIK; 100
